- target_under_test: TYK2 Pseudokinase (JH2) (Homo sapiens)
- Construct: HEK-Blue™ IL-23 and IFNα/0 cells with a stably-integrated cytokine receptor and STAT3 or STAT1; endogenous in cells; host or cells: HEK-Blue IL-23 and HEK-Blue IFNα/β reporter cells
- assay_procedure: HEK-Blue IL-23 reporter assay (STAT3-inducible SEAP) for profiling TYK2 pseudokinase (JH2) inhibition
- Type: cell-based
- condition: HEK-Blue IL-23 cells, 10 ng/mL human recombinant IL-23, SEAP readout; read-out: IL23
- Experimental: HEK-Blue™ IL-23 and IFNα/0 cells with a stably-integrated cytokine receptor and STAT3 or STAT1 express STAT-inducible secreted embryonic alkaline phosphatase (SEAP) reporter gene upon cytokine stimulation. These cells are plated in DMEM (Gibco) containing 10% heat-inactivated FBS (Gibco) and 100 U/mL PenStrep (Gibco) at 37° C. under 5% CO2 conditions for 20-22 hours. […] SEAP induction is measured using the QUANTI Blue™ Solution (InvivoGen) according to the manufacturer's instructions.
pIC50: −log10 of the molar value.
readout_kind: pIC50

QUERY: Record CONC(=O)c1nnc(Nc2ccc(F)cn2)cc1Nc1cccc2c1N(C)[C@@H](C)c1nc(C)nn1-2 [Compound 11] : what is its pIC50 with TYK2 Pseudokinase (JH2) (Homo sapiens)?
RESULT: > 7.52

QUERY: // fetch TYK2 Pseudokinase (JH2) (Homo sapiens) pIC50 for CCONC(=O)c1nnc(NC(=O)C2CC2)cc1Nc1nccc2c1N(C)[C@@H](C)c1nn(C)nc1-2 (single isomer, unassigned) [Compound 16]
RESULT: > 7.52

QUERY: Any idea what pIC50 came out for CCONC(=O)c1nnc(Nc2ccc(F)cn2)cc1Nc1cccc2c1N(C)[C@@H](C)c1nc(C)nn1-2 [Compound 15] on TYK2 Pseudokinase (JH2) (Homo sapiens)?
RESULT: > 7.52

QUERY: Field: pIC50 (TYK2 Pseudokinase (JH2) (Homo sapiens)). Entry: Cn1cc2c(n1)-c1cccc(Nc3cc(NC(=O)C4CC4)nc4[nH]n(C)c(=O)c34)c1OC2 [Compound 1]
RESULT: 6.00 to 6.52

QUERY: // fetch TYK2 Pseudokinase (JH2) (Homo sapiens) pIC50 for CNC(=O)c1cnc2[nH]ccc2c1Nc1cccc2c1N(C)Cc1cn(C)nc1-2 [Compound 7]
RESULT: < 6.00

QUERY: Record CONC(=O)c1nnc(NC(=O)C2CC2)cc1Nc1cccc2c1N(C)[C@@H](C)c1nc(C)nn1-2 [Compound 10] : what is its pIC50 with TYK2 Pseudokinase (JH2) (Homo sapiens)?
RESULT: > 7.52

QUERY: Give pIC50 (TYK2 Pseudokinase (JH2) (Homo sapiens)) of the following compound: CONC(=O)c1cnc(NC(=O)C2CC2)cc1Nc1cccc2c1N(C)[C@@H](C)c1nc(C)nn1-2 [Compound 8]
RESULT: > 7.52

QUERY: Find pIC50 (TYK2 Pseudokinase (JH2) (Homo sapiens)) for the entry CCONC(=O)c1nnc(NC(=O)C2CC2)cc1Nc1cccc2c1N(C)[C@@H](C)c1nc(C)nn1-2 [Compound 13]
RESULT: > 7.52

QUERY: Give pIC50 (TYK2 Pseudokinase (JH2) (Homo sapiens)) of the following compound: Cc1nc2n(n1)-c1cccc(Nc3cc(NC(=O)C4CC4)nc4[nH]n(C)c(=O)c34)c1N(C)[C@H]2C [Compound 3]
RESULT: > 7.52

QUERY: Hello, I am looking for reported pIC50 with TYK2 Pseudokinase (JH2) (Homo sapiens) for CONC(=O)c1nnc(Nc2cc(C)nc(C)n2)cc1Nc1cccc2c1N(C)[C@@H](C)c1nc(C)nn1-2 [Compound 12] . Could you help?
RESULT: > 7.52

QUERY: Observed pIC50 on TYK2 Pseudokinase (JH2) (Homo sapiens) for CNC(=O)c1cnc2[nH]ccc2c1Nc1cccc2c1N(C)CCn1cnnc1-2 [Compound 6] , please.
RESULT: < 6.00

QUERY: Look up pIC50 with TYK2 Pseudokinase (JH2) (Homo sapiens) for this compound: [2H]C([2H])([2H])NC(=O)c1c(Nc2cccc3c2N(C)[C@@H](C)c2nc(C)nn2-3)cc(NC(=O)C2CC2)nc1N [Compound 4]
RESULT: < 6.00

QUERY: Request: pIC50, test system TYK2 Pseudokinase (JH2) (Homo sapiens), entry CN1Cc2cn(C)nc2-c2cccc(Nc3cc(NC(=O)C4CC4)nc4[nH]n(C)c(=O)c34)c21 [Compound 2]
RESULT: > 7.52

QUERY: Recorded pIC50 for CCONC(=O)c1nnc(Nc2cc(C)nc(C)n2)cc1Nc1cccc2c1N(C)[C@@H](C)c1nc(C)nn1-2 [Compound 14] with TYK2 Pseudokinase (JH2) (Homo sapiens), please?
RESULT: > 7.52

QUERY: Which pIC50 is reported with TYK2 Pseudokinase (JH2) (Homo sapiens) for this entry: CCONC(=O)c1cnc(NC(=O)C2CC2)cc1Nc1cccc2c1N(C)[C@@H](C)c1nc(C)nn1-2 [Compound 9] ?
RESULT: > 7.52

###

- target_under_test: JAK1-JH1 (Homo sapiens, UniProt P23458)
- Construct: recombinant purified His or GST-tagged catalytic domain for each enzyme
- Sequence (P23458 875-1153 limits assumed): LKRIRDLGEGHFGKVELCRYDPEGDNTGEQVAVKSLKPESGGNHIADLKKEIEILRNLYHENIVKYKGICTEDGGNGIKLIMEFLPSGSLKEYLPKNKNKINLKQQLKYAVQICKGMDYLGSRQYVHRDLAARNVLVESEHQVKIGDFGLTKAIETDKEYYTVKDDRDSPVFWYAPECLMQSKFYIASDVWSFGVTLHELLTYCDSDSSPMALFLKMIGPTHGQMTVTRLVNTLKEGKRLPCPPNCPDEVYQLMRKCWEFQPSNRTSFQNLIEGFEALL
- assay_procedure: HTRF-based selectivity assay, JAK1 catalytic domain
- condition: kinase domain (JH1), 21.43 μM ATP
Provide the recorded IC50 for the entries that follow.

QUERY: Can you look up the measured IC50 of CN1Cc2cn(C)nc2-c2cccc(Nc3cc(NC(=O)C4CC4)nc4[nH]n(C)c(=O)c34)c21 [Compound 2] for me?
RESULT: > 1000 nM

QUERY: // returns reported IC50 for input Cn1cc2c(n1)-c1cccc(Nc3cc(NC(=O)C4CC4)nc4[nH]n(C)c(=O)c34)c1OC2 [Compound 1]
RESULT: > 1000 nM

###

Please respond with reported IC50 for every item in the list.
- target_under_test: TYK2 Pseudokinase (JH2) (Homo sapiens, UniProt P29597)
- Construct: HEK-Blue™ IL-23 and IFNα/0 cells with a stably-integrated cytokine receptor and STAT3 or STAT1; endogenous in cells; host or cells: HEK-Blue IL-23 and HEK-Blue IFNα/β reporter cells
- Sequence (P29597 whole entry): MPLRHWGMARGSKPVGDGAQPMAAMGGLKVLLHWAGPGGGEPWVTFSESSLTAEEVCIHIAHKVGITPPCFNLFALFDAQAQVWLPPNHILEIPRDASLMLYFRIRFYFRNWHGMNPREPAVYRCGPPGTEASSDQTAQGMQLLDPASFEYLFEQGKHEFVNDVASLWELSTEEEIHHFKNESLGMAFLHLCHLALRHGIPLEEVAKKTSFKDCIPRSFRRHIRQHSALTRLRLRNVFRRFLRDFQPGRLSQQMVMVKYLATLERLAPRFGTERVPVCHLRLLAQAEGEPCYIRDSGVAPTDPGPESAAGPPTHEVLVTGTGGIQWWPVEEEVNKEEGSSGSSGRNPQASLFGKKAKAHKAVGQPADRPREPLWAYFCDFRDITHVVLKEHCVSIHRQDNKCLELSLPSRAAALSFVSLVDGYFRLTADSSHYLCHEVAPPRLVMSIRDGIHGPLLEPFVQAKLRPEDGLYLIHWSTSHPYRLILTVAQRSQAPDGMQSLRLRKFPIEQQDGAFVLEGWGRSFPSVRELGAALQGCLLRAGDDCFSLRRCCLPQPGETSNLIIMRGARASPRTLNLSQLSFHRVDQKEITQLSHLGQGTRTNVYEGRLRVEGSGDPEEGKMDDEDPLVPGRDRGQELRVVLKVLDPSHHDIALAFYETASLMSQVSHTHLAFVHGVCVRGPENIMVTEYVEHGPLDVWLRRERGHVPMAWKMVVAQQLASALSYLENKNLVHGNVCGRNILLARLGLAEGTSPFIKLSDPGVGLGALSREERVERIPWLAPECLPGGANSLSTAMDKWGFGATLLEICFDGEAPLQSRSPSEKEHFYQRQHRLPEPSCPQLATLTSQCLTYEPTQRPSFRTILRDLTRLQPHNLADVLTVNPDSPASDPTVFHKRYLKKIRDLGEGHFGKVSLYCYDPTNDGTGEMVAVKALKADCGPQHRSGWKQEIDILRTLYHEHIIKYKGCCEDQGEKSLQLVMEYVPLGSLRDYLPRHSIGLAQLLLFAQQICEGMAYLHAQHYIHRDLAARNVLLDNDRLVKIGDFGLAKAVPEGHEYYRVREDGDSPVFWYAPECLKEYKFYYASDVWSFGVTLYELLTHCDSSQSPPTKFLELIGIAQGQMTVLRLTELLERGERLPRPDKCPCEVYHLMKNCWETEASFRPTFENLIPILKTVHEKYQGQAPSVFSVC
- assay_procedure: HEK-Blue IFNα/β reporter assay (STAT1-inducible SEAP) for profiling TYK2 pseudokinase (JH2) inhibition
- Assay type: cell-based
- condition: HEK-Blue IFNα/β cells, 1 ng/mL human recombinant IFNα, SEAP readout

QUERY: Suppose we examine the compound CCONC(=O)c1nnc(Nc2ccc(F)cn2)cc1Nc1cccc2c1N(C)[C@@H](C)c1nc(C)nn1-2 ; what IC50 value has been reported?
RESULT: < 0.03 µM

QUERY: # get_value(readout='IC50', item= CCONC(=O)c1cnc(NC(=O)C2CC2)cc1Nc1cccc2c1N(C)[C@@H](C)c1nc(C)nn1-2 )
RESULT: < 0.03 µM

QUERY: Quick check: IC50 of CCONC(=O)c1nnc(Nc2cc(C)nc(C)n2)cc1Nc1cccc2c1N(C)[C@@H](C)c1nc(C)nn1-2 ?
RESULT: < 0.03 µM

QUERY: GET /values?readout=IC50&item= Cc1nc2n(n1)-c1cccc(Nc3cc(NC(=O)C4CC4)nc4[nH]n(C)c(=O)c34)c1N(C)[C@H]2C
RESULT: 0.03 to 0.3 µM

QUERY: Quick check: IC50 of CN1Cc2cn(C)nc2-c2cccc(Nc3cc(NC(=O)C4CC4)nc4[nH]n(C)c(=O)c34)c21 ?
RESULT: < 0.03 µM

QUERY: Reported IC50, compound CNC(=O)c1cnc2[nH]ccc2c1Nc1cccc2c1N(C)Cc1cn(C)nc1-2 : ____
RESULT: > 1 µM

QUERY: // lookup IC50 for CONC(=O)c1nnc(NC(=O)C2CC2)cc1Nc1cccc2c1N(C)[C@@H](C)c1nc(C)nn1-2
RESULT: 0.03 to 0.3 µM

QUERY: I'd like to know its IC50. The compound in question is CNC(=O)c1cnc2[nH]ccc2c1Nc1cccc2c1N(C)CCn1cnnc1-2
RESULT: > 1 µM

###

Task for the reader: assign each of the following compounds its reported pIC50.
- target_under_test: TYK2 Pseudokinase (JH2) (Homo sapiens)
- Construct: HEK-Blue™ IL-23 and IFNα/0 cells with a stably-integrated cytokine receptor and STAT3 or STAT1; endogenous in cells; host or cells: HEK-Blue IL-23 and HEK-Blue IFNα/β reporter cells
- assay_procedure: HEK-Blue IFNα/β reporter assay (STAT1-inducible SEAP) for profiling TYK2 pseudokinase (JH2) inhibition
- Assay type: cell-based
- condition: HEK-Blue IFNα/β cells, 1 ng/mL human recombinant IFNα, SEAP readout
pIC50: −log10 of the molar value.

QUERY: Would you kindly share the measured pIC50 for CCONC(=O)c1nnc(NC(=O)C2CC2)cc1Nc1nccc2c1N(C)[C@@H](C)c1nn(C)nc1-2 (single isomer, unassigned) ?
RESULT: > 7.52

QUERY: Quick check: pIC50 of CCONC(=O)c1nnc(NC(=O)C2CC2)cc1Nc1cccc2c1N(C)[C@@H](C)c1nc(C)nn1-2 ?
RESULT: 6.52 to 7.52

QUERY: Param item = [2H]C([2H])([2H])NC(=O)c1c(Nc2cccc3c2N(C)[C@@H](C)c2nc(C)nn2-3)cc(NC(=O)C2CC2)nc1N ; retrieve measured pIC50.
RESULT: < 6.00
